Molecular target: Cyclin-dependent kinase 2 (Homo sapiens)
value kind: IC50

structure=CC(C)[C@H](CO)Nc1nc(Nc2cccc(Cl)c2)c2ncn(C(C)C)c2n1 result="4 nM"
